Reference source for all entries: patent US20250320312A1

Target: T1, Peptide 4: Biotin-AGGGGSGGGGSGGGGSAAA-Tyr-acid (N-terminal biotin; C-terminal acid)
T1 construct: control peptide without PC
T1 peptide: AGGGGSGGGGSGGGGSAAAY
Test: scFv ELISA
The entries below are paired with their reported OD450.
Reply numerically in OD450, unit not repeated.

Study these solved cases before continuing.
BINDER	OD450, OD450
PcOxP_DB02_E06 (scFv, V domains shown, scFv in periplasmic extract) VH: EVQLLESGGGLVQPGGSLRLSCAASGFTFSDEYMEWVRQAPGKGLEWVAASRGKGNSYTTEYADSVKGRFTISRDNSKNTLYLQMNSLRAEDTAVYYCARDYYGSSYWYFDVWGQGTLVTVSS VL: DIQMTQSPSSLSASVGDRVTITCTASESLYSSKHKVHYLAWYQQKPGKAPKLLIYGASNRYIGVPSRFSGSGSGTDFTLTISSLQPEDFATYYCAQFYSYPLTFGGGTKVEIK	0.04
PcOxP_DB02_H10 (scFv, V domains shown, scFv in periplasmic extract) VH: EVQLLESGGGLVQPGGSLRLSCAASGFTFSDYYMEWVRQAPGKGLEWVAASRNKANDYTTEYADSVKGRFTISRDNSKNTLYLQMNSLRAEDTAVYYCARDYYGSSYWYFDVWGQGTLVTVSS VL: DIQMTQSPSSLSASVGDRVTITCTASESLYSSKHKVHYLAWYQQKPGKAPKLLIYGAGNRYIGVPSRFSGSGSGTDFTLTISSLQPEDFATYYCAQFYEYPLTFGGGTKVEIK	0.05
PcOxP_DB03_C12 (scFv, V domains shown, scFv in periplasmic extract) VH: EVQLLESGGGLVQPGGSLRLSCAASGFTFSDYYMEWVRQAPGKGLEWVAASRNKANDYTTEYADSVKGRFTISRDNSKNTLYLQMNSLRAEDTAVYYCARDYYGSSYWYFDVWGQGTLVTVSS VL: DIQMTQSPSSLSASVGDRVTITCTASESLYSSKHKVHYLAWYQQKPGKAPKLLIYGASNRYGGVPSRFSGSGSGTDFTLTISSLQPEDFATYYCAQFYSYPLTFGGGTKVEIK	0.05

Query :: # query: OD450 of entry PcOxP_DB01_C05 (scFv, V domains shown, scFv in periplasmic extract) VH: EVQLLESGGGLVQPGGSLRLSCAASGFTFSDGYMEWVRQAPGKGLEWVAASRNKANDYTTEYADSVKGRFTISRDNSKNTLYLQMNSLRAEDTAVYYCARDYYGSSYWYFDVWGQGTLVTVSS VL: DIQMTQSPSSLSASVGDRVTITCTASESLYSSKHKVHYLAWYQQKPGKAPKLLIYGSSNRYIGVPSRFSGSGSGTDFTLTISSLQPEDFATYYCAQFYAYPLTFGGGTKVEIK
Result :: 0.06

Query :: # query: OD450 of entry PcOxP_DB01_C03 (scFv, V domains shown, scFv in periplasmic extract) VH: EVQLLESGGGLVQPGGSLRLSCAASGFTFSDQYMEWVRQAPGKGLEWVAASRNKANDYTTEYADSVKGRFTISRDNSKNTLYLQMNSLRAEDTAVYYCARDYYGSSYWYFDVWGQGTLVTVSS VL: DIQMTQSPSSLSASVGDRVTITCTASESLYSSKHKVHYLAWYQQKPGKAPKLLIYGASNRYIGVPSRFSGSGSGTDFTLTISSLQPEDFATYYCAQFYQYPLTFGGGTKVEIK
Result :: 0.06
